ASSAY EXPLANATION: Oral bioavailability in rat
Type: ADME, organism-based
ASSAY CONTEXT: in vivo
ENDPOINT: bioavailability (%)
Number only, in %; omit the unit.

bioavailability measured on O=C(Nc1ncc(F)s1)[C@H](CC1CCOCC1)n1ncc2c(S(=O)(=O)C3CC3)cncc21 = 51

* * *

ASSAY EXPLANATION: Plasma protein binding in human
Type: ADME, cell-free
ASSAY CONTEXT: read-out: PPB (converted)
ENDPOINT: fraction unbound
I'd appreciate a reply containing only the number, no unit.

Looking up O=C(Nc1ncc(Cl)s1)[C@H](CC1CCOCC1)n1ncc2c(S(=O)(=O)C3CC3)cccc21 , I see its fraction unbound listed as 0.0004

* * *

MEASUREMENT TARGET: Hexokinase-4 (Homo sapiens)
Sequence (P35557 whole entry, the tested form may be a part): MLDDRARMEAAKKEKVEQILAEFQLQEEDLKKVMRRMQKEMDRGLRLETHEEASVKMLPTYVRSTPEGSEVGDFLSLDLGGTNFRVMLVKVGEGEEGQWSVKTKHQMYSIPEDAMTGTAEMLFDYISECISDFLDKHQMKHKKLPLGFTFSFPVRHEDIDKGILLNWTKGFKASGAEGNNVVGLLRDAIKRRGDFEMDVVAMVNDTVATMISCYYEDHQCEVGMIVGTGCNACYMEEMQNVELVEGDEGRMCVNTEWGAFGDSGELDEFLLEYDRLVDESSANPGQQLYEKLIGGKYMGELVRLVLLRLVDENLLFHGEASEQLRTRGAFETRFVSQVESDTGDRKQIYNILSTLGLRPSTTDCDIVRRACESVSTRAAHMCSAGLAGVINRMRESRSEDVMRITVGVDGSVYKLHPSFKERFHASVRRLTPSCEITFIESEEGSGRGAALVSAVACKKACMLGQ
ASSAY EXPLANATION: Activation of full length human C-terminal FLAG-tagged glucokinase (12 to 465 residues) expressed in Escherichia coli DH10b using glucose as substrate after 60 mins in presence of ATP by kinase-glo luminescence assay
ENDPOINT: pEC50
Hey, just a heads up that pEC50 is the negative log base 10 of the concentration in molar.

Form field pEC50, entry O=C(Nc1ncc(F)s1)[C@H](CC1CCOCC1)n1ncc2c(S(=O)(=O)C3CC3)cc(F)cc21 : 6.92

// Cn1ccc(NC(=O)C(CC2CCOCC2)n2ncc3c(S(=O)(=O)C4CC4)cccc32)n1 (racemic) : pEC50 value = 5.92

pEC50 recorded for this compound, NC(=O)c1cc(S(=O)(=O)C2CC2)c2cnn([C@@H](CC3CCOCC3)C(=O)Nc3ncc(F)s3)c2c1 , is 7.00

pEC50 reading for O=C(Nc1ncc(Cl)s1)[C@H](CC1CCOCC1)n1ncc2c(S(=O)(=O)C3CC3)cccc21 : 7.51

Form field pEC50, entry O=C(Nc1ncc(Cl)s1)[C@H](CC1CCOCC1)n1cc(S(=O)(=O)C2CCCC2)cn1 : 6.00

Looking up N#Cc1cc(S(=O)(=O)C2CC2)c2cnn(C(CC3CCOCC3)C(=O)Nc3ncc(F)s3)c2c1 (racemic) , I found its pEC50 recorded as 7.00

In plain terms, NC(=O)c1cnc(NC(=O)C(CC2CCOCC2)n2ncc3c(S(=O)(=O)C4CC4)cccc32)s1 (racemic) has a documented pEC50 of 5.80

* * *

MEASUREMENT TARGET: Hexokinase-4 (Homo sapiens)
ASSAY EXPLANATION: Activation of full length human C-terminal FLAG-tagged glucokinase (12 to 465 residues) expressed in Escherichia coli DH10b using glucose as substrate after 60 mins in presence of ATP by kinase-glo luminescence assay relative to control
So I've got a bunch of molecules here, and I need their %max values.
Unit % implied. Number only.

Quick note, %max for O=C(Nc1ccn(CCO)n1)C(CC1CCOCC1)n1ncc2c(S(=O)(=O)C3CC3)cccc21 (racemic) landed at 73

Noted for N#Cc1cc(S(=O)(=O)C2CC2)c2cnn(C(CC3CCOCC3)C(=O)Nc3ncc(F)s3)c2c1 (racemic) : its %max reads 74

Measured %max of Cn1ccc(NC(=O)C(CC2CCOCC2)n2ncc3c(S(=O)(=O)C4CC4)cccc32)n1 (racemic) : 79

Briefly, %max measured for O=C(Nc1ncc(F)s1)[C@H](CC1CCOCC1)n1ncc2c(S(=O)(=O)C3CC3)cccc21 : 83

// O=C(Nc1ncc(F)s1)[C@H](CC1CCOCC1)n1ncc2c(S(=O)(=O)C3CC3)cc(F)cc21 : %max value = 91

Record summary for O=C(Nc1ncc(F)s1)[C@H](CC1CCOCC1)n1cc(S(=O)(=O)C2CC2)cn1 : reported %max = 37

Sure, the documented %max for NC(=O)c1cccnc1NC(=O)C(CC1CCOCC1)n1ncc2c(S(=O)(=O)C3CC3)cccc21 (racemic) is 38

Per the record, Cc1ccc(NC(=O)C(CC2CCOCC2)n2ncc3c(S(=O)(=O)C4CC4)cccc32)nn1 (racemic) has %max of 50

Measured %max, O=C(Nc1ncc(Cl)s1)[C@H](CC1CCCC1)n1cc(S(=O)(=O)C2CC2)cn1 : 88

// O=C(Nc1ncc(F)s1)[C@H](CC1CCOCC1)n1ncc2c(S(=O)(=O)C3CC3)cncc21 : %max value = 71

%max in this record for O=C(Nc1ncc(F)s1)C(CC1CCOCC1)n1cc(S(=O)(=O)c2cccc(Cl)c2)cn1 (racemic) : 0

Cc1cc(S(=O)(=O)C2CC2)cc(=O)n1[C@@H](CC1CCOCC1)C(=O)Nc1ncc(Cl)s1 has a reported %max of 77

For record Cc1nnc(NC(=O)C(CC2CCOCC2)n2ncc3c(S(=O)(=O)C4CC4)cccc32)s1 (racemic) the listed %max is 74

Entry NC(=O)c1cnc(NC(=O)C(CC2CCOCC2)n2ncc3c(S(=O)(=O)C4CC4)cccc32)s1 (racemic) , %max reported as 49

Data point: O=C(Nc1ncc(F)s1)[C@H](CC1CCOCC1)n1ncc2c(S(=O)(=O)C3CC3)cc(O)cc21 ; %max = 96

// %max value for O=C(Nc1ncc(F)s1)[C@H](CC1CCCC1)n1cc(S(=O)(=O)C2CC2)cn1 : 73

// field: %max; key: O=C(Nc1ncc(F)s1)[C@H](CC1CCOCC1)n1ncc2c(S(=O)(=O)C3CC3)ccnc21 ; value = 74
